Assign MIC to each entry below.
# Tested on: S. faecalis ATCC 7080
# experiment-notes: MIC, two-fold dilution microtiter, S. faecalis ATCC 7080
# Assay type: cell-based
# protocol-conditions: Enterococcus faecalis, ATCC7080, 18-24 h, 37° C, read-out: MIC
Report as a plain number; the unit µg/mL is understood.

What value of measured MIC is listed for COC1C=COC2(C)Oc3c(C)c(O)c4c(O)c(c5sc(N6CCN(CCO)CC6)nc5c4c3C2=O)NC(=O)C(C)=CC=CC(C)C(O)C(C)C(O)C(C)C(OC(C)=O)C1C (centres unmarked) [Example 3c] ?
4

What value of measured MIC is listed for CCN(CC)c1nc2c(s1)c1c(O)c3c(O)c(C)c4c(c32)C(=O)C(C)(OC=CC(OC)C(C)C(OC(C)=O)C(C)C(O)C(C)C(O)C(C)C=CC=C(C)C(=O)N1)O4 (centres unmarked) [Example 5, 2'-(N,N-diethylamino) rifamycin P] ?
1

What value of measured MIC is listed for COC1C=COC2(C)Oc3c(C)c(O)c4c(O)c(c5sc(N6CCN(c7ccccc7)CC6)nc5c4c3C2=O)NC(=O)C(C)=CC=CC(C)C(O)C(C)C(O)C(C)C(OC(C)=O)C1C (centres unmarked) [Example 1c, 2'(4"-phenyl-1"-piperazinyl) rifamycin P] ?
1

What value of measured MIC is listed for COC1C=COC2(C)Oc3c(C)c(O)c4c(O)c(c5sc(N6CCN(Cc7ccccc7)CC6)nc5c4c3C2=O)NC(=O)C(C)=CC=CC(C)C(O)C(C)C(O)C(C)C(OC(C)=O)C1C (centres unmarked) [Example 1d] ?
1

What value of measured MIC is listed for COC1C=COC2(C)Oc3c(C)c(O)c4c(O)c(c5sc(N6CCCCC6)nc5c4c3C2=O)NC(=O)C(C)=CC=CC(C)C(O)C(C)C(O)C(C)C(OC(C)=O)C1C (centres unmarked) [Example 2, 2'-(1"-Piperidinyl) rifamycin P] ?
1.6

What value of measured MIC is listed for COC1C=COC2(C)Oc3c(C)c(O)c4c(O)c(c5sc(N6CCCC6)nc5c4c3C2=O)NC(=O)C(C)=CC=CC(C)C(O)C(C)C(O)C(C)C(OC(C)=O)C1C (centres unmarked) [Example 1a, 2'-(1"-PyrrolidinyL) rifamycin P] ?
2

What value of measured MIC is listed for COc1ccc(N2CCN(c3nc4c(s3)c3c(O)c5c(O)c(C)c6c(c54)C(=O)C(C)(OC=CC(OC)C(C)C(OC(C)=O)C(C)C(O)C(C)C(O)C(C)C=CC=C(C)C(=O)N3)O6)CC2)cc1 (centres unmarked) [Example 3e] ?
4

What value of measured MIC is listed for COC1C=COC2(C)Oc3c(C)c(O)c4c(O)c(c5sc(N6CCN(C)CC6)nc5c4c3C2=O)NC(=O)C(C)=CC=CC(C)C(O)C(C)C(O)C(C)C(O)C1C (centres unmarked) [Example 3b] ?
1

* * *

# Tested on: S. aureus TOUR L 1282
# experiment-notes: MIC, two-fold dilution microtiter, rifampicin resistant S. aureus TOUR L 1282
# Format: cell-based
# protocol-conditions: Staphylococcus aureus, TOURL1282, rifampicin resistant strain
Assign MIC to each entry below.

What value of measured MIC is listed for COC1C=COC2(C)Oc3c(C)c(O)c4c(O)c(c5sc(N6CCN(Cc7ccccc7)CC6)nc5c4c3C2=O)NC(=O)C(C)=CC=CC(C)C(O)C(C)C(O)C(C)C(OC(C)=O)C1C (stereo not drawn) ?
> 128 µg/mL

What value of measured MIC is listed for COC1C=COC2(C)Oc3c(C)c(O)c4c(O)c(c5sc(N6CCCC6)nc5c4c3C2=O)NC(=O)C(C)=CC=CC(C)C(O)C(C)C(O)C(C)C(OC(C)=O)C1C (stereo not drawn) ?
> 128 µg/mL

What value of measured MIC is listed for COC1C=COC2(C)Oc3c(C)c(O)c4c(O)c(c5sc(N6CCN(CCO)CC6)nc5c4c3C2=O)NC(=O)C(C)=CC=CC(C)C(O)C(C)C(O)C(C)C(OC(C)=O)C1C (stereo not drawn) ?
64 µg/mL
